target: SH3-His (human, UniProt P00519 61-121); experiment: fluorescence polarisation
Sequence (P00519 61-121): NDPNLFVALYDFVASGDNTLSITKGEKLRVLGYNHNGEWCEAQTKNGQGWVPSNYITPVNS
No end group written: not given here.
measured.property: pKd
Reminder that pKd is minus the log10 of a molar concentration.

Bench note: what pKd did APAFPPPSPP (also: FITC label, position not given here) [TOP1-FITC] show?
4.80

All figures here come from paper PMC2914685.
